Value source: PubChem BioAssay AID1963976

test system: 435261-313-R-J1-PDC tumor spheroid viability; assay: Anticancer human tumor 435261-313-R-J1-PDC patient-derived colon adenocarcinoma cell line growth inhibition [PI3K]; settings: second compound 1 µM; first compound 1 µM; stronger effect = lower value; spheroids with HUVEC and MSC
viability, T/C listing for selected compounds.
// return numeric value only (unit: %, not printed)

Reference set, count: 5
CNC(=O)c1ccc(N2C(=S)N(c3ccc(C#N)c(C(F)(F)F)c3)C(=O)C2(C)C)cc1F + CC(Nc1ncnc2nc[nH]c12)c1cc2cccc(Cl)c2c(=O)n1-c1ccccc1    86.5
C[C@@H](NC(=O)c1ncnc(N)c1Cl)c1ncc(C(=O)Nc2cc(C(F)(F)F)c(Cl)cn2)s1 + COc1c(OCCCN2CCOCC2)ccc2c3n(c(=NC(=O)c4cnc(N)nc4)nc12)CCN3    7.09
Cn1nccc1Nc1nccc(-c2ccn(C(CO)c3ccc(Cl)c(F)c3)c(=O)c2)n1 (stereo unspecified) + Cc1nc(NC(=O)N2CCCC2C(N)=O)sc1-c1ccnc(C(C)(C)C(F)(F)F)c1    8
CC(Cn1ccc(-c2ccc(C#N)c(Cl)c2)n1)NC(=O)c1cc(C(C)O)[nH]n1 (stereo unspecified) + Cc1nc(NC(=O)N2CCCC2C(N)=O)sc1-c1ccnc(C(C)(C)C(F)(F)F)c1    34.2
CNC(=O)c1ccc(N2C(=S)N(c3ccc(C#N)c(C(F)(F)F)c3)C(=O)C2(C)C)cc1F + Cc1nc(NC(=O)N2CCCC2C(N)=O)sc1-c1ccnc(C(C)(C)C(F)(F)F)c1    37.4

What does the record list as viability, T/C for CCCS(=O)(=O)Nc1ccc(F)c(C(=O)c2c[nH]c3ncc(-c4ccc(Cl)cc4)cc23)c1F + Cc1nc(NC(=O)N2CCCC2C(N)=O)sc1-c1ccnc(C(C)(C)C(F)(F)F)c1 ?
59.3

----------
test system: 435261-313-R-J1-PDC tumor spheroid viability; experiment: Anticancer human tumor 435261-313-R-J1-PDC cell line growth inhibition [PI3K]; details: second compound 0.1 µM; first compound 1 µM; stronger effect = lower value; spheroids with HUVEC and MSC;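 also: spheroids exposed to compounds for 7 days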
viability, T/C listing for selected compounds.
// return numeric value only (unit: %, not printed)

Cn1ncc(Cl)c1-c1cc(C(=O)NC(CN)Cc2cccc(F)c2)sc1Cl (centres undefined) + Cc1nc(NC(=O)N2CCCC2C(N)=O)sc1-c1ccnc(C(C)(C)C(F)(F)F)c1    28.1
C=CC(=O)N1CCN(c2nc(=O)n(-c3c(C)ccnc3C(C)C)c3nc(-c4c(O)cccc4F)c(F)cc23)C(C)C1 (centres undefined) + CC(Nc1ncnc2nc[nH]c12)c1cc2cccc(Cl)c2c(=O)n1-c1ccccc1    84.3
CCCS(=O)(=O)Nc1ccc(F)c(C(=O)c2c[nH]c3ncc(-c4ccc(Cl)cc4)cc23)c1F + COc1c(OCCCN2CCOCC2)ccc2c3n(c(=NC(=O)c4cnc(N)nc4)nc12)CCN3    26.3

# next compound below
Hello, I am looking for reported viability, T/C with 435261-313-R-J1-PDC tumor spheroid viability for CNC(=O)c1ccc(N2C(=S)N(c3ccc(C#N)c(C(F)(F)F)c3)C(=O)C2(C)C)cc1F + CC(Nc1ncnc2nc[nH]c12)c1cc2cccc(Cl)c2c(=O)n1-c1ccccc1 . Could you help?
121

----------
pIC50 listing for selected compounds.
test system: 435261-313-R-J1-PDC tumor spheroid viability; test: Anticancer human tumor 435261-313-R-J1-PDC cell line growth inhibition [PI3K]; conditions: curve of first compound; second compound 0.00316 µM; spheroids with HUVEC and MSC;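 also: spheroids exposed to compounds for 7 days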
pIC50: −log10 of the molar value.

C=CC(=O)N1CCN(c2nc(=O)n(-c3c(C)ccnc3C(C)C)c3nc(-c4c(O)cccc4F)c(F)cc23)C(C)C1 (configuration not stated) + COc1c(OCCCN2CCOCC2)ccc2c3n(c(=NC(=O)c4cnc(N)nc4)nc12)CCN3    < 5.00
CC(=O)c1c(C)c2cnc(Nc3ccc(N4CCNCC4)cn3)nc2n(C2CCCC2)c1=O + CC(Nc1ccc2c(c1)OCCn1cc(N3C(=O)OCC3C(F)F)nc1-2)C(N)=O    < 7.00
C[C@@H](NC(=O)c1ncnc(N)c1Cl)c1ncc(C(=O)Nc2cc(C(F)(F)F)c(Cl)cn2)s1 + CC(Nc1ccc2c(c1)OCCn1cc(N3C(=O)OCC3C(F)F)nc1-2)C(N)=O    < 5.00

# next compound below
What does the record list as pIC50 for Cn1cnc2c(F)c(Nc3ccc(Br)cc3Cl)c(C(=O)NOCCO)cc21 + CC(Nc1ccc2c(c1)OCCn1cc(N3C(=O)OCC3C(F)F)nc1-2)C(N)=O ?
> 8.02

----------
tested on: 435261-313-R-J1-PDC tumor spheroid viability; assay: Anticancer human tumor 435261-313-R-J1-PDC cell line growth inhibition [PI3K]; details: second compound 0.0316 µM; first compound 0.316 µM; stronger effect = lower value; spheroids with HUVEC and MSC;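 also: spheroids exposed to compounds for 7 days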
quantity: viability, T/C (%)
// return numeric value only (unit: %, not printed)

Reference set, count: 3
C#Cc1c(F)ccc2cc(O)cc(-c3ncc4c(N5CC6CCC(C5)N6)nc(OCC56CCCN5CC(F)C6)nc4c3F)c12 (centres undefined) + Cc1nc(NC(=O)N2CCCC2C(N)=O)sc1-c1ccnc(C(C)(C)C(F)(F)F)c1    102
C=CC(=O)N1CCN(c2nc(=O)n(-c3c(C)ccnc3C(C)C)c3nc(-c4c(O)cccc4F)c(F)cc23)C(C)C1 (centres undefined) + CC(Nc1ccc2c(c1)OCCn1cc(N3C(=O)OCC3C(F)F)nc1-2)C(N)=O    71.5
C[C@@H](NC(=O)c1ncnc(N)c1Cl)c1ncc(C(=O)Nc2cc(C(F)(F)F)c(Cl)cn2)s1 + COc1c(OCCCN2CCOCC2)ccc2c3n(c(=NC(=O)c4cnc(N)nc4)nc12)CCN3    47.5

# next molecule below
What does the record list as viability, T/C for Cn1nccc1Nc1nccc(-c2ccn(C(CO)c3ccc(Cl)c(F)c3)c(=O)c2)n1 (centres undefined) + CC(Nc1ncnc2nc[nH]c12)c1cc2cccc(Cl)c2c(=O)n1-c1ccccc1 ?
84

----------
Test system: 435261-313-R-J1-PDC tumor spheroid viability
Assay: Anticancer human tumor 435261-313-R-J1-PDC cell line growth inhibition [PI3K];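 also: spheroids exposed to compounds for 7 days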
Conditions: second compound 0.00316 µM; first compound 0.1 µM; stronger effect = lower value; spheroids with HUVEC and MSC
From the text: Combinatorial screen of targeted agents with the PI3K inhibitors inavolisib, alpelisib, duvelisib, and copanlisib in multi-cell type tumor spheroids A high-throughput screen of multi-cell type tumor spheroids was designed to identify active combinations of targeted small molecules and PI3K pathway inhibitors. […] Compounds. […] If the clinical Cmax for an agent had not been determined, the highest concentration tested was 10 microM. […]
viability, T/C listing for selected compounds.
// return numeric value only (unit: %, not printed)

C=CC(=O)N1CCN(c2nc(=O)n(-c3c(C)ccnc3C(C)C)c3nc(-c4c(O)cccc4F)c(F)cc23)C(C)C1 (stereo not drawn) + CC(Nc1ccc2c(c1)OCCn1cc(N3C(=O)OCC3C(F)F)nc1-2)C(N)=O    81.4
C[C@@H](NC(=O)c1ncnc(N)c1Cl)c1ncc(C(=O)Nc2cc(C(F)(F)F)c(Cl)cn2)s1 + CC(Nc1ccc2c(c1)OCCn1cc(N3C(=O)OCC3C(F)F)nc1-2)C(N)=O    171

# next compound below
What does the record list as viability, T/C for C=CC(=O)N1CCN(c2nc(=O)n(-c3c(C)ccnc3C(C)C)c3nc(-c4c(O)cccc4F)c(F)cc23)C(C)C1 (stereo not drawn) + COc1c(OCCCN2CCOCC2)ccc2c3n(c(=NC(=O)c4cnc(N)nc4)nc12)CCN3 ?
78.2

----------
tested on: 435261-313-R-J1-PDC tumor spheroid viability; assay: Anticancer human tumor 435261-313-R-J1-PDC cell line growth inhibition [PI3K]; settings: second compound 0.1 µM; first compound 0.1 µM; stronger effect = lower value; spheroids with HUVEC and MSC;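 also: spheroids exposed to compounds for 7 days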
We label by threshold. Values of viability, T/C strictly beneath 20% are yes (1). Values of 20% and up are no (0).

C=CC(=O)N1CCN(c2nc(=O)n(-c3c(C)ccnc3C(C)C)c3nc(-c4c(O)cccc4F)c(F)cc23)C(C)C1 (stereo not given) + COc1c(OCCCN2CCOCC2)ccc2c3n(c(=NC(=O)c4cnc(N)nc4)nc12)CCN3    yes (1)
CCCS(=O)(=O)Nc1ccc(F)c(C(=O)c2c[nH]c3ncc(-c4ccc(Cl)cc4)cc23)c1F + COc1c(OCCCN2CCOCC2)ccc2c3n(c(=NC(=O)c4cnc(N)nc4)nc12)CCN3    yes (1)
C=CC(=O)N1CCN(c2nc(=O)n(-c3c(C)ccnc3C(C)C)c3nc(-c4c(O)cccc4F)c(F)cc23)C(C)C1 (stereo not given) + CC(Nc1ccc2c(c1)OCCn1cc(N3C(=O)OCC3C(F)F)nc1-2)C(N)=O    no (0)
CC1(C)CCC(Nc2ncc(C(F)(F)F)c(-c3c[nH]c4c(P(C)(C)=O)c(C#N)ccc34)n2)CN1 (stereo not given) + Cc1nc(NC(=O)N2CCCC2C(N)=O)sc1-c1ccnc(C(C)(C)C(F)(F)F)c1    no (0)

Strictly below 20% in viability, T/C? Cn1ncnc1[C@H]1c2n[nH]c(=O)c3cc(F)cc(c23)N[C@@H]1c1ccc(F)cc1 + CC(Nc1ccc2c(c1)OCCn1cc(N3C(=O)OCC3C(F)F)nc1-2)C(N)=O
no (0)

Strictly below 20% in viability, T/C? CC1(C)CCC(CN2CCN(c3ccc(C(=O)NS(=O)(=O)c4ccc(NCC5CCOCC5)c([N+](=O)[O-])c4)c(Oc4cnc5[nH]ccc5c4)c3)CC2)=C(c2ccc(Cl)cc2)C1 + COc1c(OCCCN2CCOCC2)ccc2c3n(c(=NC(=O)c4cnc(N)nc4)nc12)CCN3
yes (1)

Strictly below 20% in viability, T/C? CNC(=O)c1ccc(N2C(=S)N(c3ccc(C#N)c(C(F)(F)F)c3)C(=O)C2(C)C)cc1F + Cc1nc(NC(=O)N2CCCC2C(N)=O)sc1-c1ccnc(C(C)(C)C(F)(F)F)c1
no (0)

Strictly below 20% in viability, T/C? CC(C)n1nc(-c2ccc3oc(N)nc3c2)c2c(N)ncnc21 + COc1c(OCCCN2CCOCC2)ccc2c3n(c(=NC(=O)c4cnc(N)nc4)nc12)CCN3
yes (1)

Strictly below 20% in viability, T/C? CCN1CCN(Cc2ccc(Nc3ncc(F)c(-c4cc(F)c5nc(C)n(C(C)C)c5c4)n3)nc2)CC1 + CC(Nc1ccc2c(c1)OCCn1cc(N3C(=O)OCC3C(F)F)nc1-2)C(N)=O
no (0)

Strictly below 20% in viability, T/C? Cn1ncc(Cl)c1-c1cc(C(=O)NC(CN)Cc2cccc(F)c2)sc1Cl (stereo not given) + CC(Nc1ncnc2nc[nH]c12)c1cc2cccc(Cl)c2c(=O)n1-c1ccccc1
no (0)

Strictly below 20% in viability, T/C? Cn1nccc1Nc1nccc(-c2ccn(C(CO)c3ccc(Cl)c(F)c3)c(=O)c2)n1 (stereo not given) + CC(Nc1ccc2c(c1)OCCn1cc(N3C(=O)OCC3C(F)F)nc1-2)C(N)=O
no (0)
